- test-system: Histamine H1 receptor (Homo sapiens) (UniProt P35367)
- Sequence (P35367 whole entry): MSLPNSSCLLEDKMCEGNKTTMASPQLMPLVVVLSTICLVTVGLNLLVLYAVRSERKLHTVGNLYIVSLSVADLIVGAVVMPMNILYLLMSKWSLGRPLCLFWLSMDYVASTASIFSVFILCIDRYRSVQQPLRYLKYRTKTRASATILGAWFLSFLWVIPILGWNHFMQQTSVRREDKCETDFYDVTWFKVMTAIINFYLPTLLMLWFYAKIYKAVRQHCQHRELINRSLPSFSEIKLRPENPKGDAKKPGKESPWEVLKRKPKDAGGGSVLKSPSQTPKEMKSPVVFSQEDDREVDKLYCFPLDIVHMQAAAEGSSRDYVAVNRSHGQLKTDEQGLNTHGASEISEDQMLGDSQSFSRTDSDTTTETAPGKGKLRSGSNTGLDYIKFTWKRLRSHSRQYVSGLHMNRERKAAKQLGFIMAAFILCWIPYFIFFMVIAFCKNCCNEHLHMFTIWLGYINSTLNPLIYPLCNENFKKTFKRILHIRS
- protocol-description: Antagonist activity at recombinant human histamine H1 receptor assessed as inhibition of agonist-induced effect at 10 uM by aequorin reporter based assay
- Type: functional
Quick reference: inhibition of the listed items.
Your answer is read as %, so omit the unit and give the number.

smiles-str | property-name | observed
CN(CCNC(=O)c1ccc(C#N)cc1)Cc1ccccc1 | inhibition | 35
CN(CCCNC(=O)c1ccc(C(F)(F)F)cc1)Cc1ccccc1 | inhibition | 24

Next, consider the following molecule.
IN: Find the measured inhibition of CN(CCCNC(=O)c1ccc(Cl)cc1)CCc1ccccc1 with Histamine H1 receptor (Homo sapiens) (UniProt P35367) as test system.
OUT: 90
